The measured values listed here are drawn from the Human Domainome abundance scans (Beltran et al. 2025).

B1: Homeobox protein SIX6, residues 134 to 184; numbered along this chain, O95475 (parent)
chain: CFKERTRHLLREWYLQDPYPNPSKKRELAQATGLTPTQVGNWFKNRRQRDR

variants of: B1; test: abundance fitness (aPCA) (normalised: wild type 0, dead -1); higher = more abundant; growth selection in yeast, the domain comes from the species named; conditions: Homo sapiens
assay-endpoint: abundance fitness
The response must contain the number and no unit.

[[record]]
variant_code = "T35M"
assay_endpoint = "abundance fitness"
observed_result = -0.703

[[record]]
variant_code = "R51V"
assay_endpoint = "abundance fitness"
observed_result = -0.545

[[record]]
variant_code = "W42D"
assay_endpoint = "abundance fitness"
observed_result = -0.769

[[record]]
variant_code = "K25N"
assay_endpoint = "abundance fitness"
observed_result = -0.48

[[record]]
variant_code = "Q38R"
assay_endpoint = "abundance fitness"
observed_result = -0.868


input: Name the reported abundance fitness value associated with the variant Y19C
output: -0.469

input: Next entry: R47G
output: -0.762

input: Next entry: G40E
output: -0.032

input: Next entry: P36C
output: -0.527

input: Next entry: R26K
output: -0.024
